test system: PRKAA1 or PRKAA2 (rat); experiment: radiometric filter-binding kinase assay; conditions: compound 1.0 µM; accession and sequence are those of the human protein
Doc: threshold 90% (exclusive). Items with residual activity beneath it return y; others return n.

Compound	Group
Cc1cccc(Nc2nn(C)c3ncnc(N)c23)c1	n
NCC(=O)Nc1ccc(-n2nc(C(F)(F)F)cc2-c2ccc3c(ccc4ccccc43)c2)cc1	n
O=C(O)c1cc(N=Nc2ccc(S(=O)(=O)Nc3ccccn3)cc2)ccc1O	n
CN(C)C/C=C/C(=O)Nc1cccc(C(=O)Nc2ccc(Nc3nccc(-c4cccnc4)n3)cc2)c1	y
O=C(NOCC(O)CO)c1ccc(F)c(F)c1Nc1ccc(I)cc1Cl (stereo not given)	n
O=C1NC(=S)N[C@@H]1Cc1c[nH]c2ccccc12	n
O=c1c(O)c(-c2ccc(O)c(O)c2)oc2cc(O)c(O)c(O)c12	y
O=C(N[C@@H](COc1ccc2[nH]c(=O)[nH]c2c1)c1ccccc1)c1cccn(Cc2ccc(F)c(F)c2)c1=O	n
Oc1ccc2ccccc2c1SSc1c(O)ccc2ccccc12	y
N#Cc1c(C2CCNCC2)cc(-c2c(O)cccc2OCC2CC2)nc1N	y
Oc1ccc(/C=C/c2cc(O)cc(O)c2)cc1	n
NS(=O)(=O)OC[C@@H]1C[C@@H](n2ccc3c(N[C@H]4CCc5ccccc54)ncnc32)C[C@@H]1O	n
Cc1cccc(-c2nn(C(=S)Nc3ccccc3)cc2-c2ccnc3ccccc23)n1	y
COc1cc(O)c2c(c1)[C@H]1OC1C[C@H](O)[C@H](O)C(=O)/C=C\C[C@H](C)OC2=O (stereo not given in full)	n
CNC(=O)C1[C@H]2O[C@@](C)([C@@H]1N)n1c3ccccc3c3c4c(c5c6ccccc6n2c5c31)C(=O)NC4 (stereo not given in full)	y
O=C(Nc1nc2cc(C(F)(F)F)cc(NC3CC3)n2n1)c1cccnc1	n
Cc1ccc(Sc2cnc(Nc3cccc(Br)n3)s2)cc1C(=O)N1CCN(C(=O)CN)CC1	y

----------
target: CHEK2 (human) (UniProt O96017); experiment: radiometric filter-binding kinase assay; conditions: compound 0.1 µM
Sequence (O96017 whole entry, looked up): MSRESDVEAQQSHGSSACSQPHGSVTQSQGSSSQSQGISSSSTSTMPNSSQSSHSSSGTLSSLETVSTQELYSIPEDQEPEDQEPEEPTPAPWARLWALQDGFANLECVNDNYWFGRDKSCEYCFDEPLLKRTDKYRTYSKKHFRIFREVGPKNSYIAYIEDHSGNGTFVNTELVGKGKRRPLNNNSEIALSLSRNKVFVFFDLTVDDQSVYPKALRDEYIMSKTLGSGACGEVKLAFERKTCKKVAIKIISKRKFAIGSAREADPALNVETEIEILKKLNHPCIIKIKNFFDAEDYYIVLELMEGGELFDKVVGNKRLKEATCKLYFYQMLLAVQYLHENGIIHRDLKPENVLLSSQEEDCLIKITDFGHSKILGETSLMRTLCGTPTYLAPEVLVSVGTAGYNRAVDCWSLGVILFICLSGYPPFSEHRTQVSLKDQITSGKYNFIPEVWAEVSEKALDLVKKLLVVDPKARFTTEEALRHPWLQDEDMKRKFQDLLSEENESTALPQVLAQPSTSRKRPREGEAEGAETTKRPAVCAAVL
Readout Type: residual activity (%)

CNc1nc(-c2ccc3c(N)n[nH]c3c2)cc(N2C[C@@H](C(=O)NC3CCCCC3)CC[C@H]2C)n1 121
Cc1cc(NC(=O)c2cccc(NC(=O)/C=C/CN(C)C)c2)ccc1Nc1nccc(-c2cccnc2)n1 102
CCc1cncnc1N1CCN(Cc2nc3cc(C(F)(F)F)ccc3[nH]2)CC1 101
CN1CCN(CCOc2cc(OC3CCOCC3)c3c(Nc4c(Cl)ccc5c4OCO5)ncnc3c2)CC1 112
COc1cc(O)c2c(c1)/C=C/C[C@H](O)[C@H](O)C(=O)/C=C\C[C@H](C)OC2=O 110

----------
Listing: residual activity of selected compounds
biological target: UniProtKB P45984; assay: radiometric filter-binding kinase assay; settings: compound 1.0 µM
Sequence (P45984 whole entry, looked up): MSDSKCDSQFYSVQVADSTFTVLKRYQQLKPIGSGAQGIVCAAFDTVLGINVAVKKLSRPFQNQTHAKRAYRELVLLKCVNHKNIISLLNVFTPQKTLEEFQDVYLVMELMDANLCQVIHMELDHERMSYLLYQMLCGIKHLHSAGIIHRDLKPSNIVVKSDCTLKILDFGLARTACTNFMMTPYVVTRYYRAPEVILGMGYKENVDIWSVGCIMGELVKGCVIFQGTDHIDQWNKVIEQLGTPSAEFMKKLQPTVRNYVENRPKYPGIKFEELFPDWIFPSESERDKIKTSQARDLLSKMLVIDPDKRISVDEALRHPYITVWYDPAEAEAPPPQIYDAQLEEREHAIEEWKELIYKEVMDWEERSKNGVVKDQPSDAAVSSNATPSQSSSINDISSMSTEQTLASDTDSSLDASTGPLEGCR
Readout Type: residual activity (%)

Compound	Readout Type	Measurement
O=C1Nc2nc(-c3c(O)cccc3OCC3CC3)cc(C3CCCNC3)c2CO1 (stereo unspecified)	residual activity	90
Cc1cccc(Nc2nn(C)c3ncnc(N)c23)c1	residual activity	104
C=CC(=O)N1CCC[C@@H](n2nc(-c3ccc(Oc4ccccc4)cc3)c3c(N)ncnc32)C1	residual activity	101
Cn1c(=O)c2c(ncn2C)n(C)c1=O	residual activity	100
O=C1NC(=S)N[C@@H]1Cc1c[nH]c2ccccc12	residual activity	91
Oc1ccc2ccccc2c1SSc1c(O)ccc2ccccc12	residual activity	94
NC(=O)Nc1ccc2c(c1)/C(=C/c1cc(-c3cccnc3)c[nH]1)C(=O)N2	residual activity	43
CN1C(=O)[C@@H](Cc2c[nH]c3ccccc23)NC1=S	residual activity	85
Cc1ccc(Sc2cnc(Nc3cccc(Br)n3)s2)cc1C(=O)N1CCN(C(=O)CN)CC1	residual activity	94
O=C(O)c1ccc(-c2c[nH]c3ncc(-c4ccccc4)cc23)cc1C1CCCC1	residual activity	46
COc1ccc2c(c1)c1c3c(c4c5ccccc5n(C)c4c1n2CC(O)CN(C)C)C(=O)NC3=O (stereo unspecified)	residual activity	63

The measurements presented in this section are drawn from the kinase profiling compilation of Christmann-Franck et al. (2016).
